- System: thrombin generation in pooled normal plasma spiked with anticoagulants
- test: Thrombin generation assay in pooled normal plasma spiked with anticoagulants
- Type: biochemical, human
- condition summary: edoxaban 60 ng/ml; cyclodextrin 100 μM; 1 pM TF
readout type: effect on the anticoagulant effect of edoxaban

OCCCCSCC1OC2OC3C(CO)OC(OC4C(CO)OC(OC5C(CO)OC(OC6C(CO)OC(OC7C(CO)OC(OC8C(CO)OC(OC1C(O)C2O)C(O)C8O)C(O)C7O)C(O)C6O)C(O)C5O)C(O)C4O)C(O)C3O (centres unmarked) :: strongly antagonized
O=C(O)CCCCCCSCC1OC2OC3C(CO)OC(OC4C(CO)OC(OC5C(CO)OC(OC6C(CO)OC(OC7C(CO)OC(OC8C(CO)OC(OC1C(O)C2O)C(O)C8O)C(O)C7O)C(O)C6O)C(O)C5O)C(O)C4O)C(O)C3O (centres unmarked) :: antagonized
O=C(O)CCCCCSCC1OC2OC3C(CSCCCCCC(=O)O)OC(OC4C(CSCCCCCC(=O)O)OC(OC5C(CSCCCCCC(=O)O)OC(OC6C(CSCCCCCC(=O)O)OC(OC7C(CSCCCCCC(=O)O)OC(OC1C(O)C2O)C(O)C7O)C(O)C6O)C(O)C5O)C(O)C4O)C(O)C3O (centres unmarked) :: strongly antagonized
O=C(O)CCCCCCSCC1OC2OC3C(CO)OC(OC4C(CO)OC(OC5C(CO)OC(OC6C(CO)OC(OC7C(CO)OC(OC8C(CO)OC(OC9C(CO)OC(OC1C(O)C2O)C(O)C9O)C(O)C8O)C(O)C7O)C(O)C6O)C(O)C5O)C(O)C4O)C(O)C3O (centres unmarked) :: antagonized

---

- System: thrombin generation in pooled normal plasma spiked with anticoagulants
- test: Thrombin generation assay in pooled normal plasma spiked with anticoagulants
- Format: biochemical, human
- condition summary: apixaban 60 ng/ml; cyclodextrin 100 μM; 1 pM TF
- Experimental: FIGS. 3-8, 12, 14-19 and 22-27: Pooled normal plasma was spiked with cyclodextrins (100 μM, unless otherwise indicated) and anticoagulants. […] The Calibrated Automated Thrombogram® assays the generation of thrombin in clotting plasma using a microtiter plate reading fluorometer (Fluoroskan Ascent, ThermoLab systems, Helsinki, Finland) and Thrombinoscope® software (Thrombinoscope BV, Maastricht, The Netherlands). […]
readout type: effect on the anticoagulant effect of apixaban

O=C(O)CCCCCCSCC1OC2OC3C(CO)OC(OC4C(CO)OC(OC5C(CO)OC(OC6C(CO)OC(OC7C(CO)OC(OC8C(CO)OC(OC1C(O)C2O)C(O)C8O)C(O)C7O)C(O)C6O)C(O)C5O)C(O)C4O)C(O)C3O (stereo not drawn) :: antagonized
O=C(O)CCCCCSCC1OC2OC3C(CO)OC(OC4C(CO)OC(OC5C(CO)OC(OC6C(CO)OC(OC7C(CO)OC(OC8C(CO)OC(OC1C(O)C2O)C(O)C8O)C(O)C7O)C(O)C6O)C(O)C5O)C(O)C4O)C(O)C3O (stereo not drawn) :: antagonized

---

- Tested on: plasma deficient in coagulation factor VIII
- test: Thrombin generation assay in plasma deficient in coagulation factor VIII
- Format: biochemical, human
readout type: procoagulant effect in factor VIII deficient plasma

O=C(O)CCCCCCCSCC1OC2OC3C(CSCCCCCCCC(=O)O)OC(OC4C(CSCCCCCCCC(=O)O)OC(OC5C(CSCCCCCCCC(=O)O)OC(OC6C(CSCCCCCCCC(=O)O)OC(OC7C(CSCCCCCCCC(=O)O)OC(OC8C(CSCCCCCCCC(=O)O)OC(OC1C(O)C2O)C(O)C8O)C(O)C7O)C(O)C6O)C(O)C5O)C(O)C4O)C(O)C3O (stereo not drawn) :: procoagulant effects
OCCCCSCC1OC2OC3C(CO)OC(OC4C(CO)OC(OC5C(CO)OC(OC6C(CO)OC(OC7C(CO)OC(OC8C(CO)OC(OC9C(CO)OC(OC1C(O)C2O)C(O)C9O)C(O)C8O)C(O)C7O)C(O)C6O)C(O)C5O)C(O)C4O)C(O)C3O (stereo not drawn) :: procoagulant effects
O=C(O)CCCCCCSCC1OC2OC3C(CO)OC(OC4C(CO)OC(OC5C(CO)OC(OC6C(CO)OC(OC7C(CO)OC(OC8C(CO)OC(OC1C(O)C2O)C(O)C8O)C(O)C7O)C(O)C6O)C(O)C5O)C(O)C4O)C(O)C3O (stereo not drawn) :: procoagulant effects

---

- Tested on: thrombin generation in pooled normal plasma spiked with anticoagulants
- test: Thrombin generation assay in pooled normal plasma spiked with anticoagulants
- Format: biochemical, human
- condition summary: edoxaban 60 ng/ml; cyclodextrin 100 μM; 1 pM TF
readout type: effect on the anticoagulant effect of edoxaban

O=C(O)CCCCCSCC1OC2OC3C(CO)OC(OC4C(CO)OC(OC5C(CO)OC(OC6C(CO)OC(OC7C(CO)OC(OC8C(CO)OC(OC1C(O)C2O)C(O)C8O)C(O)C7O)C(O)C6O)C(O)C5O)C(O)C4O)C(O)C3O (stereo not shown) :: antagonized
O=C(O)CCCCCSCC1OC2OC3C(CO)OC(OC4C(CO)OC(OC5C(CO)OC(OC6C(CO)OC(OC7C(CO)OC(OC1C(O)C2O)C(O)C7O)C(O)C6O)C(O)C5O)C(O)C4O)C(O)C3O (stereo not shown) :: antagonized

---

- Test system: thrombin generation in pooled normal plasma spiked with anticoagulants
- test: Thrombin generation assay in pooled normal plasma spiked with anticoagulants
- Type: biochemical, human
- condition summary: apixaban 60 ng/ml; cyclodextrin 100 μM; 1 pM TF
readout type: effect on the anticoagulant effect of apixaban

O=C(O)CCCCCSCC1OC2OC3C(CO)OC(OC4C(CO)OC(OC5C(CO)OC(OC6C(CO)OC(OC7C(CO)OC(OC1C(O)C2O)C(O)C7O)C(O)C6O)C(O)C5O)C(O)C4O)C(O)C3O (stereo not shown) :: antagonized
O=C(O)CCCCCCSCC1OC2OC3C(CO)OC(OC4C(CO)OC(OC5C(CO)OC(OC6C(CO)OC(OC7C(CO)OC(OC8C(CO)OC(OC9C(CO)OC(OC1C(O)C2O)C(O)C9O)C(O)C8O)C(O)C7O)C(O)C6O)C(O)C5O)C(O)C4O)C(O)C3O (stereo not shown) :: antagonized
OCCCCSCC1OC2OC3C(CO)OC(OC4C(CO)OC(OC5C(CO)OC(OC6C(CO)OC(OC7C(CO)OC(OC8C(CO)OC(OC1C(O)C2O)C(O)C8O)C(O)C7O)C(O)C6O)C(O)C5O)C(O)C4O)C(O)C3O (stereo not shown) :: strongly antagonized
O=C(O)CCCCCSCC1OC2OC3C(CSCCCCCC(=O)O)OC(OC4C(CSCCCCCC(=O)O)OC(OC5C(CSCCCCCC(=O)O)OC(OC6C(CSCCCCCC(=O)O)OC(OC7C(CSCCCCCC(=O)O)OC(OC1C(O)C2O)C(O)C7O)C(O)C6O)C(O)C5O)C(O)C4O)C(O)C3O (stereo not shown) :: strongly antagonized

---

- Tested on: plasma deficient in coagulation factor VIII
- test: Thrombin generation assay in plasma deficient in coagulation factor VIII
- Format: biochemical, human
readout type: procoagulant effect in factor VIII deficient plasma

O=C(O)CCCCCSCC1OC2OC3C(CSCCCCCC(=O)O)OC(OC4C(CSCCCCCC(=O)O)OC(OC5C(CSCCCCCC(=O)O)OC(OC6C(CSCCCCCC(=O)O)OC(OC7C(CSCCCCCC(=O)O)OC(OC1C(O)C2O)C(O)C7O)C(O)C6O)C(O)C5O)C(O)C4O)C(O)C3O (stereo not drawn) :: procoagulant effects
OCCCSCC1OC2OC3C(CSCCCO)OC(OC4C(CSCCCO)OC(OC5C(CSCCCO)OC(OC6C(CSCCCO)OC(OC7C(CSCCCO)OC(OC8C(CSCCCO)OC(OC1C(O)C2O)C(O)C8O)C(O)C7O)C(O)C6O)C(O)C5O)C(O)C4O)C(O)C3O (stereo not drawn) :: procoagulant effects
